# System: K562
# TEST DESCRIPTION: NCI tumour cell line growth inhibition, 48 h
The source made the active and inactive calls. Cut-off read from the data, not from the text of the source: active = GI50 up to about 1.1 µM and inactive = higher.
RECORDED METRIC: GI50

Here are 3 compounds together with their reported answers.
COMPOUND: O=C1c2ccccc2C(=O)c2c(NC(=O)c3ccc4c5c(ncnc35)-c3ccccc3C4=O)cccc21
GI50: > 100 µM (inactive)
//
COMPOUND: C=CC1ON(C)CCc2cc(OC)c(OC)cc21 (stereo unspecified)
GI50: > 100 µM (inactive)
//
COMPOUND: Cc1ccc2c(c1)C(=O)N1CCC[C@H]1C=N2
GI50: 7.76 µM (inactive)

Could you tell me GI50 for each of these compounds? They are listed below.
1. O=[N+]([O-])/C(C(Cl)=C(Cl)Cl)=C1\NCCS1
2. OC1c2[nH]c3ccccc3c2CCN2CCCCC12 (stereo unspecified)
3. COc1ccc(C[C@@H]2NC[C@@H](O)[C@@H]2OC(C)=O)cc1
4. COc1cccc(Cc2cc(=O)c3ccc(C)nc3[nH]2)c1
5. N#CC12C3C4CC5C6C4C1C6C(O)(C53)N2Cc1ccccc1 (stereo unspecified)
6. COc1cc2c(c(OC)c1OC)-c1ccc(SC)c(=O)cc1[C@@H](NCc1ccc(F)cc1)CC2
7. Cc1nnc2sc(-c3ccc(-c4ccccc4Cl)o3)nn12
8. C=CC1CN(C(=O)OCC)N(C(=O)OCC)C1CCc1ccccc1 (stereo unspecified)

Result:
18.8 µM (inactive)
> 100 µM (inactive)
0.0104 µM (active)
86.7 µM (inactive)
> 100 µM (inactive)
< 0.0075 µM (active)
21.2 µM (inactive)
50.8 µM (inactive)

Recorded values, source ChEMBL document CHEMBL1201862.
